Some compounds, each annotated with its measured selectivity ratio.
experiment: Selectivity ratio of CC50 to IC50 for promastigote stage of Leishmania amazonensis WHOM/BR/75/JOSEFA; set-up: reference not given here
Just the number, please.

**Query** // query selectivity ratio value for entry `CSc1nc2ccccc2nc1Cl`
**Result** 13.5

**Query** Entry to check: `COc1ccc2nc(NCC(C)C)c(SC)nc2c1`
**Result** 6.7

**Query** Entry `CCCCNc1nc2cc(Br)ccc2nc1SC` please
**Result** 5.1

###

assay: Selectivity ratio of CC50 for monkey LLC-MK2 cells to IC50 for epimastigote stage of epimastigote stage of Trypanosoma cruzi Y; type: ADME, cell-based; details: read-out: Ratio CC50/IC50
Classes are defined on selectivity ratio with ranges low (below 6), medium (6 to below 20), high (20 or more)

{"compound string": "COc1ccc2nc(NCCO)c(S(C)(=O)=O)nc2c1", "category label": "high"}

Next compound, please.
**Query** Band assignment needed for `CS(=O)(=O)c1nc2ccccc2nc1Cl` please.
**Result** high

###

test: Selectivity ratio of CC50 for mouse J774A1 cells to IC50 for promastigote stage of Leishmania amazonensis WHOM/BR/75/JOSEFA; format: ADME, cell-based, J774.A1; settings: read-out: Ratio CC50/IC50
measured endpoint: selectivity ratio

Reference set (3 entries):
{"compound string": "CCCCNc1nc2ccc(OC)cc2nc1SC", "selectivity ratio": 2.1}
{"compound string": "CS(=O)(=O)c1nc2ccccc2nc1Cl", "selectivity ratio": 14.4}
{"compound string": "COc1ccc2nc(S(C)(=O)=O)c(NC3CCCCC3)nc2c1", "selectivity ratio": 6.5}

**Query** Consider the compound shown here: `CCCCNc1nc2cc(Br)ccc2nc1SC` What is its recorded selectivity ratio?
**Result** 5.1

**Query** `CCCCNc1nc2ccc(OC)cc2nc1NCc1ccccc1` , same question.
**Result** 3.6

###

experiment: Selectivity ratio of CC50 to IC50 for promastigote stage of Leishmania amazonensis WHOM/BR/75/JOSEFA; parameters: reference not given here
Classes are defined on selectivity ratio with ranges small value (below 5), mid value (5 to below 10), large value (10 or more)

Please review the following examples before continuing.
{"compound": "CS(=O)(=O)c1nc2ccc(Cl)cc2nc1NC1CCCCC1", "category label": "large value"}
{"compound": "COc1ccc2nc(S(C)(=O)=O)c(NC3CCCCC3)nc2c1", "category label": "mid value"}
{"compound": "COc1ccc2nc(Cl)c([S+](C)[O-])nc2c1 (centres undefined)", "category label": "large value"}
{"compound": "c1ccc(-c2nc3ccccc3nc2-c2ccc(OCCN3CCCCC3)cc2)cc1", "category label": "large value"}
{"compound": "C[S+]([O-])c1nc2ccc(Cl)cc2nc1NC1CCCCC1 (centres undefined)", "category label": "large value"}

Now, please, on to the next compound.
**Query** Band of `CCCCNc1nc2cc(OC)ccc2nc1Cl` ?
**Result** small value

###

Overview of recorded pIC50 for various molecules
tested on: Leishmania amazonensis; experiment: Antileishmanial activity against amastigote stage of Leishmania amazonensis WHOM/BR/75/JOSEFA infected in BALB/c mouse peritoneal macrophages after 72 hrs by Geimsa staining-based light microscopy; type: functional, organism-based
The scale used: pIC50 is minus the common logarithm of the concentration in molar units.

Below are worked cases with known answers.
{"molecule": "CS(=O)(=O)c1nc2ccc(Br)cc2nc1Cl", "data value": 5.85}
{"molecule": "COc1ccc2nc(NC3CCCCC3)c(S(C)(=O)=O)nc2c1", "data value": 4.69}
{"molecule": "COc1ccc2nc(Cl)c([S+](C)[O-])nc2c1 (stereo not given)", "data value": 5.34}
{"molecule": "COc1ccc2nc(Cl)c(NCc3ccccc3)nc2c1", "data value": 4.60}

Next up:
**Query** // lookup pIC50 for `C[C@@H]1[C@H](O)[C@@H](C)/C=C/C=C/C=C/C=C/C=C/C=C/C=C/[C@H](O[C@@H]2O[C@H](C)[C@@H](O)[C@H](N)[C@@H]2O)C[C@@H]2O[C@](O)(C[C@@H](O)C[C@@H](O)[C@H](O)CC[C@@H](O)C[C@@H](O)CC(=O)O[C@H]1C)C[C@H](O)[C@H]2C(=O)O`
**Result** 6.40
